# Tested on: DU-145
# experimental details: Growth inhibition of human DU145 cells at 10 uM after 48 hrs by sulforhodamine B assay relative to control
# Type: functional
# reported conditions: DU-145, 48 h, read-out: GI
measured endpoint: inhibition of growth at 10 µM (%)
Give your result in % as a bare value.

Record excerpt, results attached:
1) C=CCc1c2c(c(OC)c3ccoc13)C(=O)/C(=C/c1ccccc1OC)O2 :: 65
2) COc1c2occc2c(OC)c2c(=O)c(CN3CCOCC3)c(/C=C/c3ccc(N(C)C)cc3)oc12 :: 93

Tested on DU-145, the item `COc1c(C(=O)/C=C/c2ccccc2)c(O)cc2occc12` showed inhibition of growth at 10 µM equal to 75

Tested on DU-145, the item `COc1ccccc1/C=C/C(=O)c1c(O)cc2occc2c1OC` showed inhibition of growth at 10 µM equal to 78

---

# Test system: DU-145
# experimental details: Growth inhibition of human DU145 cells after 48 hrs by coulter counting analysis
# Format: functional
# reported conditions: DU-145, 48 h
This listing pairs compounds with measured GI50.
Give your result in µM as a bare value.

1) C=CCc1c(O)c(C(=O)/C=C/c2ccccc2)c(OC)c2ccoc12 :: 4.92

We next turn to a different compound, shown below.
Tested on DU-145, the item `C=CCc1c2c(c(OC)c3ccoc13)C(=O)/C(=C/c1ccccc1OC)O2` showed GI50 equal to 3.19

---

# Test system: KM12
# experimental details: Growth inhibition of human KM12 cells after 48 hrs by coulter counting analysis
# Assay type: functional
# reported conditions: KM12, 48 h
This listing pairs molecules with measured GI50.
Give your result in µM as a bare value.

Record excerpt, results attached:
1. COc1ccc(-c2cc(=O)c3c(OC)c4ccoc4c(/C=C/C=O)c3o2)cc1 :: 12.3
2. C=CCc1c(O)c(C(=O)/C=C/c2ccc(Cl)cc2)c(OC)c2ccoc12 :: 3.72
3. C=CCc1c(O)c(C(=O)/C=C/c2ccccc2)c(OC)c2ccoc12 :: 4.06
4. C=CCc1c2c(c(OC)c3ccoc13)C(=O)/C(=C/c1ccccc1OC)O2 :: 3.49
5. COc1c2ccoc2c(/C=C/C=O)c2oc(-c3ccccc3)cc(=O)c12 :: 16.5
6. COc1c(C(=O)/C=C/c2ccc(Cl)cc2)c(O)c(Br)c2occc12 :: 3.49

Note to self: GI50 recorded for `COc1c2occc2c(OC)c2c(=O)c(CN3CCOCC3)c(/C=C/c3ccc(N(C)C)cc3)oc12` was 1.73

Note to self: GI50 recorded for `COc1c2occc2c(OC)c2c(=O)c(CN3CCOCC3)c(/C=C/c3ccc(Cl)cc3)oc12` was 2.1

Note to self: GI50 recorded for `COc1c(C(=O)/C=C/c2ccccc2)c(O)cc2occc12` was 3.71

---

# experimental details: Growth inhibition of human EKVX cells after 48 hrs by coulter counting analysis
# Format: functional
measured endpoint: log10 of GI50 (log10 of the value in µM)
Note the log scale: values are log10 of GI50 expressed in µM.

Record excerpt, results attached:
1. C=CCc1c(O)c(C(=O)/C=C/c2ccccc2)c(OC)c2ccoc12 :: 0.79
2. COc1c(C(=O)/C=C/c2ccc(Cl)cc2)c(O)c(Br)c2occc12 :: 0.62
3. C=CCc1c2c(c(OC)c3ccoc13)C(=O)/C(=C/c1ccccc1OC)O2 :: 0.64
4. COc1ccccc1/C=C/C(=O)c1c(O)cc2occc2c1OC :: 1.53
5. COc1c2occc2c(OC)c2c(=O)c(CN3CCOCC3)c(/C=C/c3ccc(Cl)cc3)oc12 :: 0.45

Note to self: log10 of GI50 recorded for `COc1c(C(=O)/C=C/c2ccccc2)c(O)cc2occc12` was 1.10

Note to self: log10 of GI50 recorded for `C=CCc1c(O)c(C(=O)/C=C/c2ccc(Cl)cc2)c(OC)c2ccoc12` was 0.86

Note to self: log10 of GI50 recorded for `COc1c2occc2c(OC)c2c(=O)c(CN3CCOCC3)c(/C=C/c3ccc(N(C)C)cc3)oc12` was 0.35

---

# Tested on: HT-29
# experimental details: Growth inhibition of human HT-29 cells after 48 hrs by coulter counting analysis
# Type: functional
# reported conditions: HT-29, 48 h
measured endpoint: GI50 (µM)
Give your result in µM as a bare value.

Record excerpt, results attached:
1. C=CCc1c(O)c(C(=O)/C=C/c2ccccc2)c(OC)c2ccoc12 :: 3.01
2. C=CCc1c(O)c(C(=O)/C=C/c2ccc(Cl)cc2)c(OC)c2ccoc12 :: 1.89
3. C=CCc1c2c(c(OC)c3ccoc13)C(=O)/C(=C/c1ccccc1OC)O2 :: 3.98

We next turn to a different compound, shown below.
Note to self: GI50 recorded for `COc1c2ccoc2c(/C=C/C=O)c2oc(-c3ccccc3)cc(=O)c12` was 25.1

---

# Tested on: DU-145
# experimental details: Growth inhibition of human DU145 cells after 48 hrs by coulter counting analysis
# Assay type: functional
# reported conditions: DU-145, 48 h
measured endpoint: GI50 (µM)
Give your result in µM as a bare value.

Record excerpt, results attached:
1. COc1c2occc2c(OC)c2c(=O)c(CN3CCOCC3)c(/C=C/c3ccc(Cl)cc3)oc12 :: 2.63
2. COc1ccccc1/C=C/C(=O)c1c(O)cc2occc2c1OC :: 23.5
3. COc1c(C(=O)/C=C/c2ccccc2)c(O)cc2occc12 :: 3.81
4. COc1ccc(-c2cc(=O)c3c(OC)c4ccoc4c(/C=C/C=O)c3o2)cc1 :: 4.53
5. C=CCc1c(O)c(C(=O)/C=C/c2ccc(Cl)cc2)c(OC)c2ccoc12 :: 3.85

Tested on DU-145, the item `COc1c2occc2c(OC)c2c(=O)c(CN3CCOCC3)c(/C=C/c3ccc(N(C)C)cc3)oc12` showed GI50 equal to 1.67

Tested on DU-145, the item `COc1c(C(=O)/C=C/c2ccc(Cl)cc2)c(O)c(Br)c2occc12` showed GI50 equal to 4.07

Tested on DU-145, the item `COc1c2ccoc2c(/C=C/C=O)c2oc(-c3ccccc3)cc(=O)c12` showed GI50 equal to 10.7
